Test system: PPARg:RXRa 30nM:10nM, anti-RXR (NR concentration 30 nM, RXRa partner concentration 10 nM)
Assay: PBM binding z-score (relative to random genomic background probes); higher = stronger binding; sequences stand for … in GC…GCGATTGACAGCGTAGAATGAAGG
The label depends only on PBM binding z-score: Satisfied if it is at least 0.4, Not satisfied if it is smaller.

Here are 5 sequences together with their reported answers.
AGAACGAGGGCAATTAGTTGATAGCACGGGTGGC
Not satisfied
AGAACGAGGGCAATGAGTTGATAGCTCGGGTGGC
Not satisfied
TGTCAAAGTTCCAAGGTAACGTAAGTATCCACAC
Satisfied
ACATACAGGTGAGTGAAGGTAACTCAGCTGGACG
Satisfied
TCGAGTAGATTAGGGGCATTCAGAATGGCGTCGA
Satisfied

Input: Is reported PBM binding z-score greater than or equal to 0.4 here: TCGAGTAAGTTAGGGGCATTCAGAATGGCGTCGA
Output: Satisfied

###

Test system: PPARg:RXRa 270nM:90nM, anti-RXR (NR concentration 270 nM, RXRa partner concentration 90 nM)
Experiment: PBM binding z-score (relative to random genomic background probes); higher = stronger binding; sequences stand for … in GC…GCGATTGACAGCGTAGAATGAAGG
Observed property: PBM binding z-score
Reply briefly: the number, and no unit.

CCTAGTTGGTCAGGAGGTCACACAACGGATATGA
4.16
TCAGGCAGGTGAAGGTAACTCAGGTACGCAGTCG
1.2
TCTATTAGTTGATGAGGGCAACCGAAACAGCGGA
2
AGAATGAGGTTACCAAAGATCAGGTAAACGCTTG
2.77
ACTCGGAGGACACAGGTCAGAGCTACGCCAGTGA
3.06
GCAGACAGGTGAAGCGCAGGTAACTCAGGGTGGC
-0.656

Input: Indicate the recorded PBM binding z-score value for this sequence: AGAACGAGGGCACGCTGAGTTGATTGCAGAGTAG
Output: 1.83

Input: Indicate the recorded PBM binding z-score value for this sequence: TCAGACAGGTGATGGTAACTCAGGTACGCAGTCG
Output: 1.7

Input: Indicate the recorded PBM binding z-score value for this sequence: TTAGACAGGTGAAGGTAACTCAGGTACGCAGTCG
Output: 1.33

Input: Indicate the recorded PBM binding z-score value for this sequence: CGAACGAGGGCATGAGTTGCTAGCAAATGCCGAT
Output: 1.52

Input: Indicate the recorded PBM binding z-score value for this sequence: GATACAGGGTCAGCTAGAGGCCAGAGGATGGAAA
Output: 3.5

Input: Indicate the recorded PBM binding z-score value for this sequence: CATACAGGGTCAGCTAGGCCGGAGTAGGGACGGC
Output: 2.96

###

Test system: LXRa:RXRa (NR concentration 270 nM, RXRa partner concentration 90 nM)
Assay: PBM binding z-score (relative to random genomic background probes); higher = stronger binding; sequences stand for … in GC…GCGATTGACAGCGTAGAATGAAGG
Observed property: PBM binding z-score
Reply briefly: the number, and no unit.

The cases that follow already have their PBM binding z-score on record.
TCTAGCGGGCCAGAGGGTCACTCAAGAGGTACGG
0.883
TCGAGTAGGTTACCAATGGGGCATCCAGCTTTCT
1.12
CATACAGGGTCAGCTAGGCCATAGTAGGGACGGC
3.07

Input: Indicate the recorded PBM binding z-score value for this sequence: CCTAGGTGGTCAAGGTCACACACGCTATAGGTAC
Output: 3.67

Input: Indicate the recorded PBM binding z-score value for this sequence: ATACGTAGGTTAAGGGTCATTCAGGTTGGTTCGC
Output: 4.98

Input: Indicate the recorded PBM binding z-score value for this sequence: CGTAAAAGTTCAAGGTAACGTAACAGAAAGCAGC
Output: 5.24

Input: Indicate the recorded PBM binding z-score value for this sequence: CGAACTAGGTCAGAACAGGACAGCGAAGGATGAT
Output: 0.841

Input: Indicate the recorded PBM binding z-score value for this sequence: ATCTCTATGTAAAGATAGTTCAGTGAATGCAAAT
Output: 0.583

Input: Indicate the recorded PBM binding z-score value for this sequence: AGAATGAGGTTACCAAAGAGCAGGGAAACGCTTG
Output: 5.78

###

Test system: PPARg:RXRa 90nM:30nM, anti-RXR (NR concentration 90 nM, RXRa partner concentration 30 nM)
Test: PBM binding z-score (relative to random genomic background probes); higher = stronger binding; sequences stand for … in GC…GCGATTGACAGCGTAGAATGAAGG
The label depends only on PBM binding z-score: 1 (yes) if it is at least 3, 0 (no) if it is smaller.

Here are 8 sequences together with their reported answers.
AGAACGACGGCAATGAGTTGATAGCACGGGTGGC
0 (no)
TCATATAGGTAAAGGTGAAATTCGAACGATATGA
1 (yes)
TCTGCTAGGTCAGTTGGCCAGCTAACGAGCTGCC
0 (no)
ATCGAAAGGTCGAGGTGAGTATAGAGAAAGGGAA
0 (no)
CGTCCAAGGTCAATGCTAGGTCAGTGGAAGCATT
1 (yes)
CCTACTGGGCCAAGGTCATTAATCAGTCAAAGCA
1 (yes)
CCTTACGGGTCAAGGGTATAGCACGGGTGGTACG
1 (yes)
TCTTGGAGATCAATAGAGGTTAAGAAAGTGCGCT
0 (no)

Input: Is reported PBM binding z-score greater than or equal to 3 here: GGAACAAGGGCAAAGTTGATAGCATCTGTCGACG
Output: 1 (yes)

Input: Is reported PBM binding z-score greater than or equal to 3 here: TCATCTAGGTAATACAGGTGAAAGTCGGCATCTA
Output: 1 (yes)

###

Test system: PPARa:RXRa (NR concentration 270 nM, RXRa partner concentration 90 nM)
Assay: PBM binding z-score (relative to random genomic background probes); higher = stronger binding; sequences stand for … in GC…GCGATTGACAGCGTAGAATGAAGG
The label depends only on PBM binding z-score: 1 if it is at least 3, -1 if it is smaller.

Here are 6 sequences together with their reported answers.
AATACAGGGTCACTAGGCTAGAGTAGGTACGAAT
1
CGAACTAGGTCATTGACAGGACAGTGCATAGTAA
1
CCTAGTTGGTCAAGATCACACACGCTATAGGTAC
-1
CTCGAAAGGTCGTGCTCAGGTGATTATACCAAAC
1
CGTCCAAGGTCAAGATCAGTGAAAGAGACTCGAA
1
GGAACGAGGGTAAGTTGATAGCAGAGTTTGATGG
-1

Input: Is reported PBM binding z-score greater than or equal to 3 here: TCTCGTTGGTCACGGAGGTCACACACGACGGGTA
Output: 1

###

Tested on: PPARg:RXRa IVT, anti-PPARg (NR concentration 270 nM, RXRa partner concentration 90 nM)
Experiment: PBM binding z-score (relative to random genomic background probes); higher = stronger binding; sequences stand for … in GC…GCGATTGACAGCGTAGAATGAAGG
The label depends only on PBM binding z-score: Criterion met if it is at least 2, Criterion not met if it is smaller.

Here are 5 sequences together with their reported answers.
TCATATAGGTAAAGGTGAAAGACGAACGATATGA
Criterion met
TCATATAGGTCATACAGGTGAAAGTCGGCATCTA
Criterion met
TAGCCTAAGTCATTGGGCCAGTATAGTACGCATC
Criterion not met
ACTAGCAGGCAAAGGGTCACTCAAGATTAGTCCG
Criterion met
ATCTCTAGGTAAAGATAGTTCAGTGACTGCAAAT
Criterion not met

Input: Is reported PBM binding z-score greater than or equal to 2 here: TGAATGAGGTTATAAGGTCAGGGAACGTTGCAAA
Output: Criterion met

Input: Is reported PBM binding z-score greater than or equal to 2 here: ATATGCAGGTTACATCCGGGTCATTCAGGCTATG
Output: Criterion met

Input: Is reported PBM binding z-score greater than or equal to 2 here: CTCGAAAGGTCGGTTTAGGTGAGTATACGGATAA
Output: Criterion not met

Input: Is reported PBM binding z-score greater than or equal to 2 here: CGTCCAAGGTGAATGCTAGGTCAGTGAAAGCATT
Output: Criterion met

Input: Is reported PBM binding z-score greater than or equal to 2 here: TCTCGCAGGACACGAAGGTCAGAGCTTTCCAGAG
Output: Criterion not met

Input: Is reported PBM binding z-score greater than or equal to 2 here: TCTTGTAGATCAACAGGAGGGTAAGAAAGATCGA
Output: Criterion not met

Input: Is reported PBM binding z-score greater than or equal to 2 here: CCTAGCAGGCCAATCCGGGTCACTCAAGGCTTGA
Output: Criterion met
